Reference source for all entries: paper PMC11505714

- tested-target: Glutathione S-transferase (GST) (UniProt P08515 1-218)
- Sequence (P08515 whole entry): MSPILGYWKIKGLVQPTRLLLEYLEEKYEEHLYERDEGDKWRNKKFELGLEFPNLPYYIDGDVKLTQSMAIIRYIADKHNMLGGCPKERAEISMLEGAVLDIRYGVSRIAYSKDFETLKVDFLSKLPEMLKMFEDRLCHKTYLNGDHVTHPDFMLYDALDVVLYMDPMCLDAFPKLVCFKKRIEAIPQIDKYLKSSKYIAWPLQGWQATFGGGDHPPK
- assay-remarks: bead fluorescence, confocal microscopy; 37 °C; BB: 20 mM HEPES pH 7.4, 120 mM NaCl, 5 mM KCl, 2 mM MgCl2; wash BB + 0.05% Tween 20; 37 °C, 40 min (section 2.1 gives another binding buffer: DPBS, 5 mM MgCl2)
- condition: protein: recombinant; tags: biotinylated, on streptavidin agarose beads; chain copies: 2; label: FAM (also called AF488); two small stem-loops with a large loop (Mfold)
pKd: −log10 of the molar value.
parameter: pKd

[[record]]
binder = "Seq3 (ssDNA) DNA: AGCGTCGGATACCACTACTATGCCGGTCGGGGGTTGGGGATCTCTCTTGGGGGAGGGTTATCATGGAGTTCGTGGTCAG"
measured_number = 7.47

